ASSAY OVERVIEW: chemical genetic growth profiling, strain panel (AID 1159580);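 also: tested at 20 µM; growth read once vehicle control cultures reached saturation at 30 °C; 1 = growth at the plate median or of vehicle wells; lower values mean less growth of the strain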
CONDITION CONTEXT: S. cerevisiae deletion strains, growth OD, locus YGL086W, strain mad1
About 2,000 (36%) of roughly 5,500 compounds were called active. Roughly 18% stayed inconclusive and do not appear here. Rule as the data show it: active = normalized growth mostly below about 0.91 (no sharp cut-off); inconclusive = no clear call, values can overlap the other calls; inactive = mostly above about 0.92. The list shows a part of the results.
Please reply with one of these outcomes: active, inactive

Here's what some known entries look like.
| COMPOUND | CLASS |
| --- | --- |
| Cc1cccc(C)c1NC1=NCCCS1 | inactive |
| CCCCNc1ccc(C(=O)OCCN(C)C)cc1 | inactive |
| Cc1ccc(C)c(OCCCC(C)(C)C(=O)O)c1 | active |

Please find the next compound below.
Prompt line: Lab log entry: "O=C(O)CN1C(=O)c2cccc3cccc(c23)C1=O" — outcome as called in the assay?
Response line: inactive

###

ASSAY OVERVIEW: chemical genetic growth profiling, strain panel (AID 1159580);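 also: tested at 20 µM; growth read once vehicle control cultures reached saturation at 30 °C; 1 = growth at the plate median or of vehicle wells; lower values mean less growth of the strain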
CONDITION CONTEXT: S. cerevisiae deletion strains, growth OD, locus YNL307C, strain MCK1 (second series), stronger effect = lower value
In all, about 5,500 compounds went through this assay and about 2,000 (36%) were called active. Inconclusive results (about 18%) are left out. This is one part of the list.
ASSAY METRIC: normalized growth
// print number alone

The cases that follow already have their normalized growth on record.
| COMPOUND | READOUT NUMBER |
| --- | --- |
| CC1(C)OC(=O)C(=Cc2cccn2-c2ccc(OC(F)(F)F)cc2)C(=O)O1 | 0.887 |
| O=[N+]([O-])c1ccc2oc(C(O)c3ccc(-c4ccccc4)cc3)cc2c1 (configuration not stated) | 0.936 |

Prompt line: Please report the recorded normalized growth for "CC(C)(C)c1ccc(C(=O)NNc2c(Cl)cccc2Cl)cc1" .
Response line: 0.902

Prompt line: How about "CC(=O)ON=C1c2cc([N+](=O)[O-])ccc2-c2ccc([N+](=O)[O-])cc21" ?
Response line: 0.691

Prompt line: # repeat for "O=C(Nc1ccc(OC(F)(F)F)cc1)OC1CN(C(c2ccccc2)c2ccccc2)C1"
Response line: 1

###

ASSAY OVERVIEW: chemical genetic growth profiling, strain panel (AID 1159580);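 also: tested at 20 µM; growth read once vehicle control cultures reached saturation at 30 °C; 1 = growth at the plate median or of vehicle wells; lower values mean less growth of the strain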
CONDITION CONTEXT: S. cerevisiae deletion strains, growth OD, locus YHR079C, strain IRE1, stronger effect = lower value
Hit rate of the full screen: of about 5,500 compounds, about 2,000 (36%) were called active. Roughly 18% stayed inconclusive and do not appear here. The list shows a part of the results.
The label 1 (yes) is reserved for normalized growth strictly under 1; 0 (no) covers values equal to or above it.

Recorded results for 5 compounds are shown here.
| COMPOUND | CLASS |
| --- | --- |
| CO/N=C(\C(=O)NC1C(=O)N2C(C(=O)OC(C)OC(C)=O)=C(COC(N)=O)CSC12)c1ccco1 (stereo unspecified) | 0 (no) |
| Cc1c(C(=S)Nc2ccccc2)sc2ccccc12 | 1 (yes) |
| O=[N+]([O-])c1ccc(Sc2ssc(=S)c2-c2ccccc2)nc1 | 1 (yes) |
| O=C(O)c1ccccc1-c1c2cc(Br)c(=O)cc-2oc2[c]([Hg])c(O)c(Br)cc12 | 1 (yes) |
| O=C1OC(c2ccc(O)cc2)(c2ccc(O)cc2)c2ccccc21 | 1 (yes) |

Prompt line: Given "Cc1cccc(C)c1NC1=NCCCS1" , is recorded normalized growth strictly lower than 1?
Response line: 0 (no)
